Catalogue of pIC50 readings, one per entry.
# targetUnderTest: ROR gamma ligand-binding domain (LBD) (hRORg) (Homo sapiens)
# assayOverview: GAL4-RORγ transactivation (luciferase reporter, HG5LN HeLa line)
# testContext: HG5LN HeLa line with GAL4 DBD fused to ROR gamma LBD, 18 hours incubation
pIC50: −log10 of the molar value.
propertyLabel: pIC50

>>> observedvalue("CCc1ccc(N(CC(C)C)S(=O)(=O)c2ccc3c(c2)C(O)CCN3C2CCN(S(C)(=O)=O)CC2)cc1 (centres unmarked) [Compound 64]")
"< 6.00"
>>> observedvalue("CCc1ccc(N(CC(C)C)S(=O)(=O)c2ccc3c(c2)C(O)CCN3[C@H](C)C2CCOCC2)cc1 (some centres unmarked) [Compound 39]")
"< 6.00"
>>> observedvalue("CCc1ccc(N(CC(C)C)S(=O)(=O)c2ccc3c(c2)C(O)CCN3CC2CCN(S(C)(=O)=O)CC2)cc1 (centres unmarked) [Compound 59]")
"< 6.00"
>>> observedvalue("CCc1ccc(N(CC(C)C)S(=O)(=O)c2ccc3c(c2)C(O)CCN3Cc2ccc(C(=O)NO)cc2)cc1 (centres unmarked) [Compound 47]")
"< 6.00"
>>> observedvalue("CCc1ccc(N(CC(C)C)S(=O)(=O)c2ccc3c(c2)C(O)CCN3CC2COC2)cc1 (centres unmarked) [Compound 18]")
"6.00 to 7.00"

---

# targetUnderTest: ROR gamma ligand-binding domain (LBD) (hRORg) (Homo sapiens)
# Sequence (P51449 269-508 limits assumed): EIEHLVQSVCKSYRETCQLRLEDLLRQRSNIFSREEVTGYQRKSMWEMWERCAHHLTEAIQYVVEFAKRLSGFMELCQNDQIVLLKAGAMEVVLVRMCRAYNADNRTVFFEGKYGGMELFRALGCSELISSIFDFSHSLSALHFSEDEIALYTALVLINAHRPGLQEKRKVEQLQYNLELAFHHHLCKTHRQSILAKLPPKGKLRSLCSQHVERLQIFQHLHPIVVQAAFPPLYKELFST
# assayOverview: GAL4-RORγ transactivation (luciferase reporter, HG5LN HeLa line)
# testContext: HG5LN HeLa line with GAL4 DBD fused to ROR gamma LBD, 18 hours incubation
Listed here: items and their measured IC50.
propertyLabel: IC50

>>> observedvalue("CCc1ccc(N(CC(C)C)S(=O)(=O)c2ccc3c(c2)C(O)CCN3CC2CCN(C(=O)OC(C)(C)C)CC2)cc1 (stereo not drawn)")
"> 1000 nM"
>>> observedvalue("CCc1ccc(N(CC(C)C)S(=O)(=O)c2ccc3c(c2)C(=O)CCN3C2CCNCC2)cc1")
"> 1000 nM"
>>> observedvalue("CCc1ccc(N(CC(C)C)S(=O)(=O)c2ccc3c(c2)C(O)CCN3CC2CCC(F)(F)C2)cc1 (stereo not drawn)")
"100 to 1000 nM"
>>> observedvalue("CCc1ccc(N(CC(C)C)S(=O)(=O)c2ccc3c(c2)C(=O)CCN3CC2(C)CCOCC2)cc1")
"100 to 1000 nM"
>>> observedvalue("CCc1ccc(N(CC(C)C)S(=O)(=O)c2ccc3c(c2)C(=O)CCN3CC2CCS(=O)(=O)CC2)cc1")
"> 1000 nM"
>>> observedvalue("CCc1ccc(N(CC(C)C)S(=O)(=O)c2ccc3c(c2)C(=O)CCN3CC2CCNCC2)cc1")
"> 1000 nM"
>>> observedvalue("CCc1ccc(N(CC(C)C)S(=O)(=O)c2ccc3c(c2)C(O)CCN3OC2CCOCC2)cc1 (stereo not drawn)")
"100 to 1000 nM"
>>> observedvalue("CCc1ccc(N(CC(C)C)S(=O)(=O)c2ccc3c(c2)C(O)CCN3CC2CCC(=O)NC2)cc1 (stereo not drawn)")
"100 to 1000 nM"
>>> observedvalue("CCc1ccc(N(CC(C)C)S(=O)(=O)c2ccc3c(c2)C(O)CCN3Cc2ccncc2)cc1 (stereo not drawn)")
"< 100 nM"
>>> observedvalue("CCc1ccc(N(CC(C)C)S(=O)(=O)c2ccc3c(c2)C(O)CCN3CC2CCNCC2)cc1 (stereo not drawn)")
"> 1000 nM"
>>> observedvalue("CCc1ccc(N(CC(C)C)S(=O)(=O)c2ccc3c(c2)C(O)CCN3CC2CCC(=O)N2)cc1 (stereo not drawn)")
"100 to 1000 nM"
>>> observedvalue("CCc1ccc(N(CC(C)C)S(=O)(=O)c2ccc3c(c2)C(O)CCN3C2CCNC(=O)C2)cc1 (single isomer, unassigned) [Compound 53]")
"> 1000 nM"
>>> observedvalue("CCc1ccc(N(CC(C)C)S(=O)(=O)c2ccc3c(c2)C(=O)CCN3CC2CCOCC2)cc1")
"100 to 1000 nM"
>>> observedvalue("CCc1ccc(N(CC(C)C)S(=O)(=O)c2ccc3c(c2)C(O)CCN3Cc2c(C)noc2C)cc1 (stereo not drawn)")
"100 to 1000 nM"
>>> observedvalue("CCc1ccc(N(CC(C)C)S(=O)(=O)c2ccc3c(c2)C(O)CCN3Cc2cn[nH]c2)cc1 (stereo not drawn)")
"100 to 1000 nM"

---

# targetUnderTest: ROR gamma ligand-binding domain (LBD) (hRORg) (Homo sapiens)
# assayOverview: GAL4-RORγ transactivation (luciferase reporter, HG5LN HeLa line)
# testContext: HG5LN HeLa line with GAL4 DBD fused to ROR gamma LBD, 18 hours incubation
// IC50 lookup, one value per entry
propertyLabel: IC50

>>> observedvalue("CCc1ccc(N(CC(C)C)S(=O)(=O)c2ccc3c(c2)C(O)CCN3CC2CC(O)C2)cc1 (mixture of isomers)")
"100 to 1000 nM"
>>> observedvalue("CCc1ccc(N(CC(C)C)S(=O)(=O)c2ccc3c(c2)C(O)CCN3Cc2cnoc2C)cc1 (stereo not drawn)")
"100 to 1000 nM"
>>> observedvalue("CCc1ccc(N(CC(C)C)S(=O)(=O)c2ccc3c(c2)C(O)CCN3Cc2ccnnc2)cc1 (stereo not drawn)")
"< 100 nM"
>>> observedvalue("CCc1ccc(N(CC(C)C)S(=O)(=O)c2ccc3c(c2)C(O)CCN3CC2CCN(C(C)=O)CC2)cc1 (stereo not drawn)")
"> 1000 nM"
>>> observedvalue("CCc1ccc(N(CC(C)C)S(=O)(=O)c2ccc3c(c2)C(O)CCN3[C@@H](C)C2CCOCC2)cc1 (stereo partly drawn) [Compound 40]")
"100 to 1000 nM"
>>> observedvalue("CCc1ccc(N(CC(C)C)S(=O)(=O)c2ccc3c(c2)C(O)CCN3CC2CN(C(=O)OC)C2)cc1 (stereo not drawn)")
"100 to 1000 nM"
